Assay: NCI Yeast Anticancer Drug Screen. Data for the mec2-1 strain (AID 157)
Settings: S. cerevisiae mec2-1 strain, at 50.0 µM, stronger effect = higher value
Compounds without any hit were thinned out: in the full panel of roughly 79,000, 15% have a hit.
metric_name: growth inhibition (%)
// return numeric value only (unit: %, not printed)

A selection of reference data follows.
[
  {
    "compound": "CC1(C)N=C(N)N=C(N)N1c1ccc(CCc2ccc(Cl)c(S(=O)(=O)F)c2)c(Cl)c1",
    "u": "%",
    "growth inhibition": 99.5
  },
  {
    "compound": "COc1ccc(/C=C/C(=O)c2c(-c3ccccc3)nn(C)c(=O)c2N2CC2C)cc1 (configuration not stated)",
    "u": "%",
    "growth inhibition": 19.9
  },
  {
    "compound": "S=C=NCc1ccccc1",
    "u": "%",
    "growth inhibition": 2.65
  },
  {
    "compound": "O=[N+]([O-])/C=C/c1c(Cl)cccc1Cl",
    "u": "%",
    "growth inhibition": 99.2
  },
  {
    "compound": "CC(=O)NC1=C(N(CCCl)CCCl)C(=O)c2ccccc2C1=O",
    "u": "%",
    "growth inhibition": 98.2
  }
]

Incoming: Fill in growth inhibition for record CN(C)P(=S)(N(C)C)N1CCOCC1
Outgoing: -13.3

Incoming: Fill in growth inhibition for record Cc1cc(O)ccc1[N+](=O)[O-]
Outgoing: -1.2

Incoming: Fill in growth inhibition for record COc1ccc(CC2C(=O)NC(C)C(=O)N(C)C3C(=O)N(C)C(Cc4ccc(O)c(c4)Oc4ccc(cc4)C3O)C(=O)NC(C)C(=O)NC(C)C(=O)N2C)cc1 (configuration not stated) (tested in a mixture with another compound)
Outgoing: 78

Incoming: Fill in growth inhibition for record O=P(O)(Oc1ccccc1)Oc1ccccc1.[Ag]
Outgoing: 94

Incoming: Fill in growth inhibition for record COCC#CCN(C)C
Outgoing: -8.3

Incoming: Fill in growth inhibition for record CC[C@@]1(O)C(=O)OCc2c1cc1n(c2=O)Cc2c-1nc1ccccc1c2Cl
Outgoing: 92

====

Test: NCI Yeast Anticancer Drug Screen. Data for the sgs1 mgt1 strain (AID 161);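 note: 0% = growth of cultures given vehicle only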
Settings: S. cerevisiae sgs1 mgt1 strain, at 50.0 µM, stronger effect = higher value
The panel holds about 79,000 compounds, 15% with a hit somewhere; the sample as a whole holds those more often.
metric_name: growth inhibition (%)
// return numeric value only (unit: %, not printed)

A selection of reference data follows.
[
  {
    "molecule": "CC(c1ccccc1)N1CCN(C(C)c2ccccc2)CC1 (centres undefined)",
    "growth inhibition, %": -31.7
  },
  {
    "molecule": "[pH]1p2[pH]p3p1p3[pH]2.c1cc[c]([Ge]([c]2ccccc2)[c]2ccccc2)cc1.c1cc[c]([Ge]([c]2ccccc2)[c]2ccccc2)cc1.c1cc[c]([Ge]([c]2ccccc2)[c]2ccccc2)cc1",
    "growth inhibition, %": 4.75
  },
  {
    "molecule": "O=[N+]([O-])/C=C\\C(Cl)(Cl)Cl",
    "growth inhibition, %": 92.2
  }
]

// switching to the query molecule
Incoming: Fill in growth inhibition for record Cc1cc(Cl)ccc1NC(=O)/C(CC(=O)CC(c1ccccc1)c1c(O)c2ccccc2oc1=O)=N\O (centres undefined)
Outgoing: 3.05

====

Assay: NCI Yeast Anticancer Drug Screen. Data for the mlh1 rad18 strain (AID 175)
Conditions: S. cerevisiae mlh1 rad18 strain growth inhibition; at 50.0 µM; stronger effect = higher value
This is part of a sample that, as a whole, favours compounds with a hit. Of some 79,000 tested, about 15% had one in any assay.
The compounds listed here are annotated with their growth inhibition.
// return numeric value only (unit: %, not printed)

[
  {
    "compound": "CC(=O)[O-].CC(=O)[O-].O=C(N/N=C/c1cc(Cl)cc(Cl)c1[OH2+])c1ccncc1.[Co+2]",
    "measurement": 73.5
  },
  {
    "compound": "CC(C)=N.[C-]#[O+].[C-]#[O+].[C-]#[O+].[C-]#[O+].[C-]#[O+].[W]",
    "measurement": -13.1
  }
]

Incoming: Fill in growth inhibition for record CC(=O)Oc1ccc(C=C(C#N)C#N)cc1
Outgoing: 14.9

Incoming: Fill in growth inhibition for record S=P(OC1CC2CCC1C2)(c1ccccc1)c1ccccc1 (stereo unspecified)
Outgoing: 1.2

Incoming: Fill in growth inhibition for record CCCO[As](=O)(OCCC)OCCC
Outgoing: -9.1

Incoming: Fill in growth inhibition for record O=[N+]([O-])c1c(F)cc(F)c([N+](=O)[O-])c1F
Outgoing: 52.9

====

Test: NCI Yeast Anticancer Drug Screen. Data for the rad50 strain (AID 155);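 note: 0% = growth of vehicle-only cultures of the same strain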
Conditions: S. cerevisiae rad50 strain growth inhibition; at 50.0 µM
The panel holds about 79,000 compounds, 15% with a hit somewhere; the sample as a whole holds those more often. Active and inactive are the calls of the source. Cut-off read from the data, not from the text of the source: active = growth inhibition above about 70%; inactive = the rest.
// classify into active, inactive

[
  {
    "molecule": "CC(=O)OCC12CC(O)C(C)=CC1OC1C(O)C(OC(C)=O)C2(C)C12CO2 (stereo not given)",
    "qualitative_label": "active"
  },
  {
    "molecule": "CC(=O)O.[RuH].c1ccc([PH+](c2ccccc2)c2ccccc2)cc1.c1ccc([PH+](c2ccccc2)c2ccccc2)cc1.c1ccc([PH+](c2ccccc2)c2ccccc2)cc1",
    "qualitative_label": "inactive"
  }
]

Incoming: Outcome logged for CC(=O)c1ccccc1O.[Cr] in this assay:
Outgoing: inactive

Incoming: Outcome logged for COc1cc(N(CC(C)Br)CC(C)Br)ccc1N=Nc1ccccc1C(=O)O (stereo not given) in this assay:
Outgoing: inactive

Incoming: Outcome logged for NS(=O)(=O)c1ccc([As]=O)cc1 (stereo not given) in this assay:
Outgoing: inactive

Incoming: Outcome logged for CNc1cc(Cl)c(C#N)c(Cl)c1 in this assay:
Outgoing: inactive

Incoming: Outcome logged for COCC(C#N)NC1CC(OC2CC(O)(C(=O)CO)Cc3c(O)c4c(c(O)c32)C(=O)c2c(OC)cccc2C4=O)OC(C)C1O (stereo not given) in this assay:
Outgoing: active

====

The molecules listed here are annotated with their growth inhibition.
Assay: NCI Yeast Anticancer Drug Screen. Data for the mlh1 rad18 strain (AID 175)
Conditions: S. cerevisiae mlh1 rad18 strain growth inhibition; at 5.0 µM (retest, dose inferred, filed as 0.5); stronger effect = higher value
About 79,000 compounds went through this panel and 15% of them were active in at least one assay; those are over-represented in the sample as a whole.
// return numeric value only (unit: %, not printed)

A selection of reference data follows.
[
  {
    "molecule": "C[CH2][Sn]1([CH2]C)[O]C(=O)CC(=O)[O]1",
    "u": "%",
    "measurement": 16
  },
  {
    "molecule": "O=[N+]([O-])c1cc(Cl)ccc1S(=O)(=O)F",
    "u": "%",
    "measurement": 96
  },
  {
    "molecule": "CNP1(=O)OC(c2ccccc2)=CCN1CCCl (stereo not drawn)",
    "u": "%",
    "measurement": 0
  }
]

// switching to the query molecule
Incoming: Fill in growth inhibition for record CCOc1ccc(CCNC)c2c1ccc1ccc(OC)c(O)c12
Outgoing: 6

====

Assay: NCI Yeast Anticancer Drug Screen. Data for the sgs1 mgt1 strain (AID 161);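 note: 0% = growth of cultures given vehicle only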
Conditions: S. cerevisiae sgs1 mgt1 strain, at 5.0 µM (retest, dose inferred, filed as 0.5)
The panel holds about 79,000 compounds, 15% with a hit somewhere; the sample as a whole holds those more often. Calls of active or inactive are those of the source. Rule as the data show it: active = growth inhibition above about 70%; inactive = the rest.
// classify into true for active, false for inactive

Example entries and their recorded answers appear below.
[
  {
    "compound": "S=P(Nc1ccc(Cl)cc1)(Nc1ccc(Cl)cc1)c1ccccc1",
    "qualitative_label": "false"
  },
  {
    "compound": "COC1CCC(OC2CC(C3(C)CCC4(CC(O)C(C)C(C(C)/C=C(\\C)C(=O)C(C)CC(C)C(=O)O)O4)O3)OC3(OC(C4OC(O)(CO)C(C)CC4C)CC3C)C2C)OC1C (stereo unspecified)",
    "qualitative_label": "false"
  },
  {
    "compound": "CC1(Br)Cc2ccccc2C1=O (stereo unspecified)",
    "qualitative_label": "false"
  },
  {
    "compound": "COc1c(Cl)[c]([Hg][O]C(C)=O)c(NCC(C)=O)c(OC)[c]1[Hg][O]C(C)=O",
    "qualitative_label": "true"
  },
  {
    "compound": "Oc1c(I)cc(I)cc1I",
    "qualitative_label": "false"
  }
]

As a next step, examine the compound that follows.
Incoming: Outcome logged for CC1=C[C@H]2O[C@H]3C[C@H]4OC(=O)/C=C\C=C\C(=O)OCC[C@@H](C)[C@H](O)C(=O)OC[C@@]2(CC1)[C@@]4(C)[C@]31CO1 in this assay:
Outgoing: true
